Source of measurements: PubChem BioAssay AID1963864

system: KRAS PDC multicell spheroid viability; assay: Anticancer human tumor 521955-158-R6-J3-PDC patient-derived pancreatic carcinoma cell line growth inhibition [KRAS2]; details: second compound 0.0316 µM; first compound 0.1 µM; stronger effect = lower value
assayMetric: viability, T/C (%)
Numbers only, in %.

Known results for compounds:
compound	assayMetric	readingUnit	measurement
COc1cc(Nc2ncc3c(n2)-c2ccc(Cl)cc2C(c2c(F)cccc2OC)=NC3)ccc1C(=O)O + C=CC(=O)N1CCN(c2nc(OCC3CCCN3C)nc3c2CCN(c2cccc4cccc(C)c24)C3)CC1CC#N	viability, T/C	%	86.4
COC(=O)c1ccc2c(C(=Nc3ccc(N(C)C(=O)CN4CCN(C)CC4)cc3)c3ccccc3)c(O)[nH]c2c1 + C=CC(=O)N1CCN(c2nc(OCC3CCCN3C)nc3c2CCN(c2cccc4cccc(C)c24)C3)CC1CC#N	viability, T/C	%	110

Quick batch: viability, T/C for everything below.
1. CC1(C)CCC(CN2CCN(c3ccc(C(=O)NS(=O)(=O)c4ccc(NCC5CCOCC5)c([N+](=O)[O-])c4)c(Oc4cnc5[nH]ccc5c4)c3)CC2)=C(c2ccc(Cl)cc2)C1 + C=CC(=O)N1CCN(c2nc(OCC3CCCN3C)nc3c2CCN(c2cccc4cccc(C)c24)C3)CC1CC#N
2. COc1cc2nccc(Oc3ccc(NC(=O)C4(C(=O)Nc5ccc(F)cc5)CC4)cc3)c2cc1OC + C=CC(=O)N1CCN(c2nc(OCC3CCCN3C)nc3c2CCN(c2cccc4cccc(C)c24)C3)CC1CC#N
3. CC1OCC2(CCN(c3cnc(Sc4ccnc(N)c4Cl)c(N)n3)CC2)C1N (stereo not given) + C=CC(=O)N1CCN(c2nc(OCC3CCCN3C)nc3c2CCN(c2cccc4cccc(C)c24)C3)CC1CC#N

1. 97.5
2. 111
3. 103

* * *

tested on: KRAS PDC multicell spheroid viability; assay: Anticancer human tumor 521955-158-R6-J3-PDC cell line growth inhibition [KRAS2]; details: second compound 10 µM; first compound 1 µM; stronger effect = lower value;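 note: drug exposure lasted seven days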;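 for viability, T/C: 100% = DMSO vehicle wells and lower means fewer viable cells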
Would you kindly list viability, T/C for each of these molecules?

A selection of reference data follows.
molecule	measurement
COc1cc2nccc(Oc3ccc(NC(=O)C4(C(=O)Nc5ccc(F)cc5)CC4)cc3)c2cc1OC + C=CC(=O)N1CCN(c2nc(=O)n(-c3c(C)ccnc3C(C)C)c3nc(-c4c(O)cccc4F)c(F)cc23)C(C)C1	64.8%
COc1cc2nccc(Oc3ccc(NC(=O)C4(C(=O)Nc5ccc(F)cc5)CC4)cc3)c2cc1OC + CNCc1ccccc1-c1csc(C(C)Nc2nc(C)nc3cc(OC)c(OC)cc23)c1	0.21%
CC1OCC2(CCN(c3cnc(Sc4ccnc(N)c4Cl)c(N)n3)CC2)C1N (stereo not given) + CNCc1ccccc1-c1csc(C(C)Nc2nc(C)nc3cc(OC)c(OC)cc23)c1	0.17%
CCN1CCN(Cc2ccc(Nc3ncc(F)c(-c4cc(F)c5nc(C)n(C(C)C)c5c4)n3)nc2)CC1 + CNCc1ccccc1-c1csc(C(C)Nc2nc(C)nc3cc(OC)c(OC)cc23)c1	0.46%

We next turn to a different molecule, shown below.
Note viability, T/C for the molecule shown: CC(C)NCC(C(=O)N1CCN(c2ncnc3c2C(C)CC3O)CC1)c1ccc(Cl)cc1 (stereo not given) + CNCc1ccccc1-c1csc(C(C)Nc2nc(C)nc3cc(OC)c(OC)cc23)c1
0.25%

* * *

test system: KRAS PDC multicell spheroid viability; assay: Anticancer human tumor 521955-158-R6-J3-PDC cell line growth inhibition [KRAS2]; conditions: curve of first compound; second compound 0.0316 µM;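 note: drug exposure lasted seven days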
pIC50: −log10 of the molar value.
assayMetric: pIC50

compound	pIC50
CC(=O)OC12COC1CC(O)C1(C)C(=O)C(O)C3=C(C)C(OC(=O)C(O)C(NC(=O)OC(C)(C)C)c4ccccc4)CC(O)(C(OC(=O)c4ccccc4)C21)C3(C)C (stereo not drawn) + C=CC(=O)N1CCN(c2nc(OCC3CCCN3C)nc3c2CCN(c2cccc4cccc(C)c24)C3)CC1CC#N	< 5.50
CCN1CCN(Cc2ccc(Nc3ncc(F)c(-c4cc(F)c5nc(C)n(C(C)C)c5c4)n3)nc2)CC1 + C=CC(=O)N1CCN(c2nc(OCC3CCCN3C)nc3c2CCN(c2cccc4cccc(C)c24)C3)CC1CC#N	< 6.00

Attention now shifts to the item below.
Using known records, supply pIC50 for CCNC(=O)CC1N=C(c2ccc(Cl)cc2)c2cc(OC)ccc2-n2c(C)nnc21 (stereo not drawn) + C=CC(=O)N1CCN(c2nc(OCC3CCCN3C)nc3c2CCN(c2cccc4cccc(C)c24)C3)CC1CC#N
< 5.00

* * *

system: KRAS PDC multicell spheroid viability; test: Anticancer human tumor 521955-158-R6-J3-PDC cell line growth inhibition [KRAS2]; details: second compound 0.0316 µM; first compound 10 µM; active means viability on the fitted dose curve at most 10% of control; inactive means the rest;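 note: drug exposure lasted seven days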
The reply should be one of these categories: active, inactive

Example entries and their recorded answers appear below.
compound	targetDesc	classAssignment
CC1(C)CCC(CN2CCN(c3ccc(C(=O)NS(=O)(=O)c4ccc(NCC5CCOCC5)c([N+](=O)[O-])c4)c(Oc4cnc5[nH]ccc5c4)c3)CC2)=C(c2ccc(Cl)cc2)C1 + C=CC(=O)N1CCN(c2nc(OCC3CCCN3C)nc3c2CCN(c2cccc4cccc(C)c24)C3)CC1CC#N	KRAS PDC multicell spheroid viability	inactive
COC(=O)c1ccc2c(C(=Nc3ccc(N(C)C(=O)CN4CCN(C)CC4)cc3)c3ccccc3)c(O)[nH]c2c1 + C=CC(=O)N1CCN(c2nc(OCC3CCCN3C)nc3c2CCN(c2cccc4cccc(C)c24)C3)CC1CC#N	KRAS PDC multicell spheroid viability	active
COc1cc2nccc(Oc3ccc(NC(=O)C4(C(=O)Nc5ccc(F)cc5)CC4)cc3)c2cc1OC + C=CC(=O)N1CCN(c2nc(OCC3CCCN3C)nc3c2CCN(c2cccc4cccc(C)c24)C3)CC1CC#N	KRAS PDC multicell spheroid viability	inactive
O=C(c1cc(Cc2n[nH]c(=O)c3ccccc23)ccc1F)N1CCN(C(=O)C2CC2)CC1 + C=CC(=O)N1CCN(c2nc(OCC3CCCN3C)nc3c2CCN(c2cccc4cccc(C)c24)C3)CC1CC#N	KRAS PDC multicell spheroid viability	inactive

Next item in the queue.
Check the results log: what was the call for CC1OCC2(CCN(c3cnc(Sc4ccnc(N)c4Cl)c(N)n3)CC2)C1N (stereo not given) + C=CC(=O)N1CCN(c2nc(OCC3CCCN3C)nc3c2CCN(c2cccc4cccc(C)c24)C3)CC1CC#N ?
inactive

* * *

tested on: KRAS PDC multicell spheroid viability; assay: Anticancer human tumor 521955-158-R6-J3-PDC cell line growth inhibition [KRAS2]; conditions: curve of first compound; second compound 10 µM;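 note: drug exposure lasted seven days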
assayMetric: IC50

compound	targetDesc	IC50
Cn1nccc1Nc1nccc(-c2cc3c(s2)C(C)(C)N(CCN2CCOCC2)C3=O)n1 + CC1OCC2(CCN(c3cnc(Sc4ccnc(N)c4Cl)c(N)n3)CC2)C1N	KRAS PDC multicell spheroid viability	1510 nM
CC1OCC2(CCN(c3cnc(Sc4ccnc(N)c4Cl)c(N)n3)CC2)C1N (configuration not stated) + CNCc1ccccc1-c1csc(C(C)Nc2nc(C)nc3cc(OC)c(OC)cc23)c1	KRAS PDC multicell spheroid viability	< 31.6 nM
CCNC(=O)CC1N=C(c2ccc(Cl)cc2)c2cc(OC)ccc2-n2c(C)nnc21 (configuration not stated) + CNCc1ccccc1-c1csc(C(C)Nc2nc(C)nc3cc(OC)c(OC)cc23)c1	KRAS PDC multicell spheroid viability	< 31.6 nM
CC1COCCN1c1cc(-c2ccnn2C)c2ccnc(-c3ccn[nH]3)c2n1 (configuration not stated) + CC1OCC2(CCN(c3cnc(Sc4ccnc(N)c4Cl)c(N)n3)CC2)C1N	KRAS PDC multicell spheroid viability	> 3160 nM
CC(C)n1nc(-c2ccc3oc(N)nc3c2)c2c(N)ncnc21 + CC1OCC2(CCN(c3cnc(Sc4ccnc(N)c4Cl)c(N)n3)CC2)C1N	KRAS PDC multicell spheroid viability	23.5 nM

Hi, could you look up IC50 for each item in my list?
1. CCN1CCN(Cc2ccc(Nc3ncc(F)c(-c4cc(F)c5nc(C)n(C(C)C)c5c4)n3)nc2)CC1 + CC1OCC2(CCN(c3cnc(Sc4ccnc(N)c4Cl)c(N)n3)CC2)C1N
2. COc1cc2nccc(Oc3ccc(NC(=O)C4(C(=O)Nc5ccc(F)cc5)CC4)cc3)c2cc1OC + C=CC(=O)N1CCN(c2nc(=O)n(-c3c(C)ccnc3C(C)C)c3nc(-c4c(O)cccc4F)c(F)cc23)C(C)C1
3. CC(C)NCC(C(=O)N1CCN(c2ncnc3c2C(C)CC3O)CC1)c1ccc(Cl)cc1 (configuration not stated) + COc1cc2nc(C)nc(NC(C)c3cc(N)cc(C(F)(F)F)c3)c2cc1OC1CCOC1
4. CN(C)C/C=C/C(=O)Nc1cc2c(Nc3ccc(F)c(Cl)c3)ncnc2cc1O[C@H]1CCOC1 + COc1cc2nc(C)nc(NC(C)c3cc(N)cc(C(F)(F)F)c3)c2cc1OC1CCOC1
5. CC(=O)OC12COC1CC(O)C1(C)C(=O)C(O)C3=C(C)C(OC(=O)C(O)C(NC(=O)OC(C)(C)C)c4ccccc4)CC(O)(C(OC(=O)c4ccccc4)C21)C3(C)C (configuration not stated) + CC1OCC2(CCN(c3cnc(Sc4ccnc(N)c4Cl)c(N)n3)CC2)C1N

1: > 1000 nM; 2: > 10000 nM; 3: < 31.6 nM; 4: 3.2 nM; 5: > 3160 nM

Hi! Can you tell me IC50 for each of these compounds?
1. CCN1CCN(Cc2ccc(Nc3ncc(F)c(-c4cc(F)c5nc(C)n(C(C)C)c5c4)n3)nc2)CC1 + CNCc1ccccc1-c1csc(C(C)Nc2nc(C)nc3cc(OC)c(OC)cc23)c1
2. CC(C)NCC(C(=O)N1CCN(c2ncnc3c2C(C)CC3O)CC1)c1ccc(Cl)cc1 (configuration not stated) + CC1OCC2(CCN(c3cnc(Sc4ccnc(N)c4Cl)c(N)n3)CC2)C1N

1: < 3.16 nM; 2: 643 nM
